- target of assay: human CD40 on cells (human, UniProt P25942 21-277)
- Sequence (P25942 21-277): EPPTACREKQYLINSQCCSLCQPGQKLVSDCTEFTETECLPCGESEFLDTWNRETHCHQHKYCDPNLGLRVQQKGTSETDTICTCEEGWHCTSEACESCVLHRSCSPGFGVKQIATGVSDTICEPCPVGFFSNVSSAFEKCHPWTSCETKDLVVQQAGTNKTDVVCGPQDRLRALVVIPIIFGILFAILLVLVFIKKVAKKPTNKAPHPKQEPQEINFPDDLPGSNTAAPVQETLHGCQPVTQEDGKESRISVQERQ
- test protocol: cell-based or functional assay
readout kind: EC50 (nM), uncrosslinked, HEK293-hCD40-NFkB reporter
Only the number, expressed in nM, is required.

Some binders with recorded EC50 (nM), uncrosslinked, HEK293-hCD40-NFkB reporter:
PR006504 (antibody, human IgG1, kappa, V domains shown, PR003379 variant L:N92V; human IgG1 L234A, L235A, G237A) VH: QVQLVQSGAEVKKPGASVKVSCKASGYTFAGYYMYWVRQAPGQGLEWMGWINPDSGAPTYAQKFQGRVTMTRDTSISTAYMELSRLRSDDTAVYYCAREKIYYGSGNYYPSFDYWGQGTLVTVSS VL: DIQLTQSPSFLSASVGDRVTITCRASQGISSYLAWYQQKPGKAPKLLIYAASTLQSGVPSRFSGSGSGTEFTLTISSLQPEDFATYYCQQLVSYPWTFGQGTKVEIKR    0.708
PR006497 (antibody, human IgG1, kappa, V domains shown, PR003379 variant L:N92Y; human IgG1 L234A, L235A, G237A) VH: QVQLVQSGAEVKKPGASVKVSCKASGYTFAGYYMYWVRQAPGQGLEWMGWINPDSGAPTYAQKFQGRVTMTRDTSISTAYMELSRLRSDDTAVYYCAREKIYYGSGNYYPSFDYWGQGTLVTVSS VL: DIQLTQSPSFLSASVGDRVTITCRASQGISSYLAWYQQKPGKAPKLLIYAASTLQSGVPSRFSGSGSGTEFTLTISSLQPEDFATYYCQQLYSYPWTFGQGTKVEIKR    0.479

As a next step, examine the binder that follows.
Value of measured EC50 (nM), uncrosslinked, HEK293-hCD40-NFkB reporter for the entry PR006511 (antibody, human IgG1, kappa, V domains shown, PR003379 variant L:S93N; human IgG1 L234A, L235A, G237A) VH: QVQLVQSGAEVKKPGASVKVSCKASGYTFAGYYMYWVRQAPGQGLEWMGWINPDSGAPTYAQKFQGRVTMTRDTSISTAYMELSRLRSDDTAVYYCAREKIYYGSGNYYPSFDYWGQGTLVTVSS VL: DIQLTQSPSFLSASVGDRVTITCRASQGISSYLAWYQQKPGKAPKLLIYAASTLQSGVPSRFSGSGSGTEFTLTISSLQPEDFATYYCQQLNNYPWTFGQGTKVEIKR : 0.815

Values were extracted from patent US20250215100A1.
